protocolSummary: Inhibition of HCV genotype 5a NS5A infected in Huh7 cells assessed as reduction in viral replication incubated 3 days and measured by bright Glo-luciferase reporter gene assay
Would you mind telling me the reported IC50 of each entry?
One number for each entry, in nM.

Check out these entries, answers already filled in.
COC(=O)N[C@H](C(=O)N1CCC[C@H]1c1ncc(-c2ccc(C#CC#Cc3cnc([C@@H]4CCCN4C(=O)[C@H](NC(=O)OC)c4ccccc4)[nH]3)c(-c3ccc(N(C)C)cc3)c2)[nH]1)C(C)C :: 0.052
COC(=O)N[C@H](C(=O)N1CCC[C@H]1c1ncc(-c2ccc(C#CC#Cc3cnc([C@@H]4CCCN4C(=O)[C@H](NC(=O)OC)c4ccccc4)[nH]3)c(-c3cccc(C(C)(C)C)c3)c2)[nH]1)C(C)C :: 0.107
COC(=O)N[C@H](C(=O)N1CCC[C@H]1c1ncc(C#CC#Cc2ccc(-c3cnc([C@@H]4CCCN4C(=O)[C@@H](NC(=O)OC)C(C)C)[nH]3)cc2)[nH]1)c1ccccc1 :: 6.4

Parameters: items (list). Returns: IC50 for each item.
1. COC(=O)N[C@H](C(=O)N1CCC[C@H]1c1ncc(C#CC#Cc2c(C)cc(-c3cnc([C@@H]4CCCN4C(=O)[C@@H](NC(=O)OC)C(C)C)[nH]3)cc2-c2ccccc2)[nH]1)C(C)C
2. COC(=O)N[C@H](C(=O)N1CCC[C@H]1c1ncc(-c2ccc(C#CC#Cc3cnc([C@@H]4CCCN4C(=O)[C@H](NC(=O)OC)c4ccccc4)[nH]3)c(-c3cccc(F)c3F)c2)[nH]1)C(C)C
3. COC(=O)N[C@H](C(=O)N1CCC[C@H]1c1ncc(C#CC#Cc2c(F)cc(-c3cnc([C@@H]4CCCN4C(=O)[C@@H](NC(=O)OC)C(C)C)[nH]3)cc2-c2ccccc2)[nH]1)C(C)C

Response:
1. 0.027
2. 0.019
3. 0.12

Consider the following items and state reported IC50 for each.
1. COC(=O)N[C@H](C(=O)N1CCC[C@H]1c1ncc(C#CC#Cc2ccc(-c3cnc([C@@H]4CCCN4C(=O)[C@@H](NC(=O)OC)C(C)C)[nH]3)cc2-c2ccc(C(C)(C)C)cc2)[nH]1)C(C)C
2. COC(=O)N[C@H](C(=O)N1CCC[C@H]1c1ncc(-c2ccc(C#CC#Cc3cnc([C@@H]4CCCN4C(=O)[C@H](NC(=O)OC)c4ccccc4)[nH]3)c(-c3cccc(-c4ccccc4)c3)c2)[nH]1)C(C)C
3. COC(=O)N[C@H](C(=O)N1CCC[C@H]1c1ncc(C#CC#Cc2ccc(-c3cnc([C@@H]4CCCN4C(=O)[C@@H](NC(=O)OC)C(C)C)[nH]3)cc2-c2cccc(-c3ccccc3)c2)[nH]1)C(C)C
4. COC(=O)N[C@H](C(=O)N1CCC[C@H]1c1ncc(-c2ccc(C#CC#Cc3cnc([C@@H]4CCCN4C(=O)[C@H](NC(=O)OC)c4ccccc4)[nH]3)cc2)[nH]1)C(C)C

Response:
0.356
0.122
0.763
0.126
